assay: sensitizers of A549 cells to miR-34 induction, primary screen, imaging, A549 dox-inducible miR-34, nuclei and caspase counts (AID 1347080); settings: A549 miR-34 inducible, Hoechst nuclei count, 48 h; measured here: total cells without miR-34 induction; also: test concentration not given here
Under this convention, True denotes cell count strictly below 9000 and False denotes cell count at or above 9000.

INSERT INTO results (smiles_str, category_label) VALUES
  ('CO/N=C(\C(=O)N[C@@H]1C(=O)N2C(C(=O)O)=C(COC(N)=O)CS[C@H]12)c1ccco1', 'False'),
  ('CCOc1ccc(-c2nc3ccc(-c4nc5ccc(N6CCN(C)CC6)cc5[nH]4)cc3[nH]2)cc1', 'True'),
  ('Cc1nnc(C(=O)NC(C)(C)c2nc(C(=O)NCc3ccc(F)cc3)c(O)c(=O)n2C)o1', 'True'),
  ('Cc1ncc(C[n+]2csc(CCO)c2C)c(N)n1', 'False');

Now turn to the next compound.
Incoming: Field: below-cutoff. Rule: recorded cell count strictly less than 9000. Subject: "OCc1c[nH]c2ccccc12"
Outgoing: True

FYI, the data here is from PubChem BioAssay.
